B1: Hairpin Ribozyme (parent)
chain: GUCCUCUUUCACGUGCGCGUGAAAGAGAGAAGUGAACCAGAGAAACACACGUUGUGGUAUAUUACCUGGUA

- Variants of: B1
- test-details: self-cleavage, relative activity (ratio to wild type); higher = more cleavage; co-transcriptional
readout: self-cleavage
// keep it numeric: no unit symbol after the value

Would you please look over these solved cases?
- A36G A64G: 0.492
- U33C G56A: 0.0589

Problem: Retrieve self-cleavage measured for G19C C48A and print it.
Result: 0.122

Problem: Retrieve self-cleavage measured for G57U U63A and print it.
Result: 0.146

Problem: Retrieve self-cleavage measured for C4G A61U and print it.
Result: 0.0796
